system: NCI-H226 complex tumor spheroids, viability; assay: Anticancer human tumor NCI-H226 cell line growth inhibition; conditions: second compound 0.0003 µM; first compound 1 µM; active compounds read low;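 note: spheroids exposed to compound for 7 days; 100% = DMSO vehicle control viability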
Each entry below carries its reported viability, T/C.
Express the result in % but write the number alone.

[2H]c1nc(C)nc([2H])c1-c1cc(NC[C@@H](C)c2cccc3c(C(=O)NC)ccnc23)ncn1 + COc1cc2c(cc1O)CCNC21CSC2c3c(OC(C)=O)c(C)c4c(c3C(COC1=O)N1C(O)C3Cc5cc(C)c(OC)c(O)c5C(C21)N3C)OCO4: 118
Cc1cc(C)c(CNC(=O)c2cc(-c3ccc(CN4CCOCC4)cc3)cc3c2cnn3C2CCCC2)c(=O)[nH]1 + COc1cc2c(cc1O)CCNC21CSC2c3c(OC(C)=O)c(C)c4c(c3C(COC1=O)N1C(O)C3Cc5cc(C)c(OC)c(O)c5C(C21)N3C)OCO4: 110
COc1ccc([C@@H](O)c2cc(-c3ncnc4cc(N5CCOCC5)ccc34)c(F)cc2Cl)nn1 + COc1cc2c(cc1O)CCNC21CSC2c3c(OC(C)=O)c(C)c4c(c3C(COC1=O)N1C(O)C3Cc5cc(C)c(OC)c(O)c5C(C21)N3C)OCO4: 95.4

-- ask Which viability, T/C value is on record for COc1cc(C)[nH]c(=O)c1CN1CCc2c(Cl)cc(C(OC)C3COC3)c(Cl)c2C1=O (centres undefined) + COc1cc2c(cc1O)CCNC21CSC2c3c(OC(C)=O)c(C)c4c(c3C(COC1=O)N1C(O)C3Cc5cc(C)c(OC)c(O)c5C(C21)N3C)OCO4 ?
-- reply 148

###

tested on: NCI-H226 complex tumor spheroids, viability; assay: Anticancer human tumor NCI-H226 cell line growth inhibition; settings: second compound 31.6 µM; first compound 0.1 µM; active compounds read low;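 note: spheroids exposed to compound for 7 days; 100% = DMSO vehicle control viability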
reportedProperty: viability, T/C (%)
Express the result in % but write the number alone.

Consider the worked cases shown below.
COc1cc(C)[nH]c(=O)c1CN1CCc2c(Cl)cc(C(OC)C3COC3)c(Cl)c2C1=O (stereo unspecified) + Cn1nnc2c(C(N)=O)ncn2c1=O: 144
Cc1cc(C)c(CNC(=O)c2cc(-c3ccc(CN4CCOCC4)cc3)cc3c2cnn3C2CCCC2)c(=O)[nH]1 + Cn1nnc2c(C(N)=O)ncn2c1=O: 108
CC1COCCN1c1cc(-c2ccnn2C)c2ccnc(-c3ccn[nH]3)c2n1 (stereo unspecified) + Cn1nnc2c(C(N)=O)ncn2c1=O: 91.5

-- ask Which viability, T/C value is on record for COc1ccc([C@@H](O)c2cc(-c3ncnc4cc(N5CCOCC5)ccc34)c(F)cc2Cl)nn1 + Cn1nnc2c(C(N)=O)ncn2c1=O ?
-- reply 91.8

-- ask Same for [2H]c1nc(C)nc([2H])c1-c1cc(NC[C@@H](C)c2cccc3c(C(=O)NC)ccnc23)ncn1 + Cn1nnc2c(C(N)=O)ncn2c1=O
-- reply 102

-- ask Same for CC(C)n1c(=O)n(C)c2cnc3cc(F)c(-c4ccc(OCCCN5CCCCC5)nc4)cc3c21 + Cn1nnc2c(C(N)=O)ncn2c1=O
-- reply 108

###

Each entry below carries its reported viability, T/C.
system: NCI-H226 complex tumor spheroids, viability; experiment: Anticancer human tumor NCI-H226 cell line growth inhibition; conditions: second compound 94.9 pM; first compound 10 µM; active compounds read low;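 note: spheroids exposed to compound for 7 days; 100% = DMSO vehicle control viability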

Consider the worked cases shown below.
CC1COCCN1c1cc(-c2ccnn2C)c2ccnc(-c3ccn[nH]3)c2n1 (stereo unspecified) + COc1cc2c(cc1O)CCNC21CSC2c3c(OC(C)=O)c(C)c4c(c3C(COC1=O)N1C(O)C3Cc5cc(C)c(OC)c(O)c5C(C21)N3C)OCO4: 50.4%
CC(C)n1c(=O)n(C)c2cnc3cc(F)c(-c4ccc(OCCCN5CCCCC5)nc4)cc3c21 + COc1cc2c(cc1O)CCNC21CSC2c3c(OC(C)=O)c(C)c4c(c3C(COC1=O)N1C(O)C3Cc5cc(C)c(OC)c(O)c5C(C21)N3C)OCO4: 29.2%
COc1ccc([C@@H](O)c2cc(-c3ncnc4cc(N5CCOCC5)ccc34)c(F)cc2Cl)nn1 + COc1cc2c(cc1O)CCNC21CSC2c3c(OC(C)=O)c(C)c4c(c3C(COC1=O)N1C(O)C3Cc5cc(C)c(OC)c(O)c5C(C21)N3C)OCO4: 43.5%
[2H]c1nc(C)nc([2H])c1-c1cc(NC[C@@H](C)c2cccc3c(C(=O)NC)ccnc23)ncn1 + COc1cc2c(cc1O)CCNC21CSC2c3c(OC(C)=O)c(C)c4c(c3C(COC1=O)N1C(O)C3Cc5cc(C)c(OC)c(O)c5C(C21)N3C)OCO4: 103%
COc1cc(C)[nH]c(=O)c1CN1CCc2c(Cl)cc(C(OC)C3COC3)c(Cl)c2C1=O (stereo unspecified) + COc1cc2c(cc1O)CCNC21CSC2c3c(OC(C)=O)c(C)c4c(c3C(COC1=O)N1C(O)C3Cc5cc(C)c(OC)c(O)c5C(C21)N3C)OCO4: 114%

Now look at this entry.
-- ask Could you share what viability, T/C was measured for Cc1cc(C)c(CNC(=O)c2cc(-c3ccc(CN4CCOCC4)cc3)cc3c2cnn3C2CCCC2)c(=O)[nH]1 + COc1cc2c(cc1O)CCNC21CSC2c3c(OC(C)=O)c(C)c4c(c3C(COC1=O)N1C(O)C3Cc5cc(C)c(OC)c(O)c5C(C21)N3C)OCO4 , tested on NCI-H226 complex tumor spheroids, viability?
-- reply 91.8%
